Where do these numbers come from? They come from the Immune Epitope Database (IEDB).

We begin with a simple list: items and their reported Kd.
Target: HLA-B*18:01
Assay: IEDB peptide-MHC binding, purified MHC/competitive/radioactivity; filed as Kd, often an IC50 or EC50 that approximates it; bounds were set here for any values at or beyond the usual limits of such assays
Settings: source organism: SARS coronavirus Tor2

{"columns": ["BIOPOLYMER_SEQUENCE", "LT_GT_EQ", "Kd (µM)"],
 "data": [
  ["REVKTIKVF", "=", 4],
  ["RERVNINIVG", "≥", 70.5],
  ["SEYDYVIFT", "=", 3.27],
  ["EEAALCTFLL", "=", 0.163],
  ["YDYYRYNLPT", "≥", 70.5],
  ["IDYDCVSFCY", "=", 3],
  ["LEDFKPRSQM", "≥", 37.8],
  ["NEYRQYLDAY", "=", 0.253],
  ["VEFLKDAWEI", "=", 3.72],
  ["YEGNSPFHPL", "=", 12.3],
  ["SDYDYYRYNL", "≥", 70.5],
  ["AEVQIDRLI", "≥", 77.5]
]}
